molecular target: Mu-type opioid receptor (Mus musculus) (UniProt P42866); experiment: Inhibition of (-)-[9-3H]bremazocine binding to mu opioid receptor at 10 uM
Sequence (P42866 whole entry, looked up): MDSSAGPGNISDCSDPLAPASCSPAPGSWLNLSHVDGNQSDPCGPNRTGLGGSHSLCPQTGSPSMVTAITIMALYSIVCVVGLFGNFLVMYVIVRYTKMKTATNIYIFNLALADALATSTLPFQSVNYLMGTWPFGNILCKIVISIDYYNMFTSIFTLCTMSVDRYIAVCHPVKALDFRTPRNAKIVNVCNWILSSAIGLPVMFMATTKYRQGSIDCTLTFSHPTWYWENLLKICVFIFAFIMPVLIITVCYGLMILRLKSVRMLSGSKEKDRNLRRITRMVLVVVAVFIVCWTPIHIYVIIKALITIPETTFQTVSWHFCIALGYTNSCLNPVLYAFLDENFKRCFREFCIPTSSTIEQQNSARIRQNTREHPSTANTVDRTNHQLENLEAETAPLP
Entries and their inhibition values follow.

{"columns": ["SMILES DATA", "UNIT ANNOTATION", "inhibition"],
 "data": [
  ["CC(C)(C)c1cccc(-c2nncn2-c2cccc(O)c2)c1", "%", 78],
  ["Oc1cccc(-n2cnnc2-c2cccc(-c3ccccc3)c2)c1", "%", 84],
  ["COc1cccc(-n2c(-c3ccc(C(C)(C)C)cc3)nnc2N(C)C)c1", "%", 50],
  ["CN(C)c1nnc(-c2ccc(C(C)(C)C)cc2)n1-c1ccc(O)cc1", "%", 8]
]}

====

tested on: Delta and mu opioid receptors (Mus musculus); assay: Selectivity for delta opioid receptor over mu opioid receptor

{"columns": ["SMILES DATA", "COMPARISON SIGN", "Selectivity ratio"],
 "data": [
  ["CN(C)c1nnc(-c2ccc3ccccc3c2)n1-c1cccc(O)c1", ">", 20.8],
  ["Oc1cccc(-n2cnnc2-c2cccc(-c3ccccc3)c2)c1", "=", 7.14],
  ["CC(C)(C)c1cccc(-c2nncn2-c2cccc(O)c2)c1", "=", 3.7],
  ["CN(C)c1nnc(-c2cccc(-c3ccccc3)c2)n1-c1cccc(O)c1", ">", 66.6],
  ["Oc1cccc(-n2cnnc2-c2ccc3ccccc3c2)c1", ">", 4.76],
  ["CN(C)c1nnc(-c2ccc(C(C)(C)C)cc2)n1-c1cccc(O)c1", "=", 80]
]}

====

target: Kappa-type opioid receptor (Rattus norvegicus) (UniProt P34975); assay: Inhibition of (-)-[9-3H]bremazocine binding to kappa opioid receptor at 10 uM
Sequence (P34975 whole entry, looked up): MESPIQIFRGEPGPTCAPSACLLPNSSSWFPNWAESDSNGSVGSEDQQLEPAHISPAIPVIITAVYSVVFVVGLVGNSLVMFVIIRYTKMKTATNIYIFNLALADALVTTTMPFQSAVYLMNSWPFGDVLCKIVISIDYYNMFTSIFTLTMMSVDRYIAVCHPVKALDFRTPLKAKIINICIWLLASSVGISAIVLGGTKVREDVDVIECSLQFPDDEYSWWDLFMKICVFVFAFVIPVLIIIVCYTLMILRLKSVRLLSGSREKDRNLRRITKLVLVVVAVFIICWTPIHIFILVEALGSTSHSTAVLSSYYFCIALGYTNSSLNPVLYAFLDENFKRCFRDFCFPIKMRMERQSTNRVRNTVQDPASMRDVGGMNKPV

{"columns": ["SMILES DATA", "ASSAY SYSTEM", "UNIT ANNOTATION", "inhibition"],
 "data": [
  ["CN(C)c1nnc(-c2ccc3ccccc3c2)n1-c1cccc(O)c1", "Kappa-type opioid receptor (Rattus norvegicus) (UniProt P34975)", "%", 27],
  ["CN(C)c1nnc(-c2ccc(-c3ccccc3)cc2)n1-c1cccc(O)c1", "Kappa-type opioid receptor (Rattus norvegicus) (UniProt P34975)", "%", 11],
  ["COc1cccc(-n2cnnc2-c2cccc(C(C)(C)C)c2)c1", "Kappa-type opioid receptor (Rattus norvegicus) (UniProt P34975)", "%", 5],
  ["CN(C)c1nnc(-c2ccc(C(C)(C)C)cc2)n1-c1ccc(O)cc1", "Kappa-type opioid receptor (Rattus norvegicus) (UniProt P34975)", "%", 21],
  ["CC(C)(C)c1ccc(-c2nncn2-c2cccc(O)c2)cc1", "Kappa-type opioid receptor (Rattus norvegicus) (UniProt P34975)", "%", 16],
  ["Oc1cccc(-n2cnnc2-c2ccc(-c3ccccc3)cc2)c1", "Kappa-type opioid receptor (Rattus norvegicus) (UniProt P34975)", "%", 46],
  ["CN(C)c1nnc(-c2cccc(-c3ccccc3)c2)n1-c1cccc(O)c1", "Kappa-type opioid receptor (Rattus norvegicus) (UniProt P34975)", "%", 8],
  ["Oc1cccc(-n2cnnc2-c2cccc(-c3ccccc3)c2)c1", "Kappa-type opioid receptor (Rattus norvegicus) (UniProt P34975)", "%", 42],
  ["CN(C)CCc1nnc(-c2ccc(C(C)(C)C)cc2)n1-c1cccc(O)c1", "Kappa-type opioid receptor (Rattus norvegicus) (UniProt P34975)", "%", 19],
  ["COc1cccc(-n2c(-c3ccc(C(C)(C)C)cc3)nnc2N(C)C)c1", "Kappa-type opioid receptor (Rattus norvegicus) (UniProt P34975)", "%", 3],
  ["CN(C)Cc1nnc(-c2ccc(C(C)(C)C)cc2)n1-c1cccc(O)c1", "Kappa-type opioid receptor (Rattus norvegicus) (UniProt P34975)", "%", 9]
]}
